assayed target: T1, recombinant human Tau monomer, 2N4R isoform (amino acids 2-441) (human, UniProt P10636-8 2-441)
T1 construct: range 2-441; N-terminal His-tag removed with TEV protease; also called monomeric Tau
T1 sequence (P10636 other isoform, or with tags, fused parts or gaps limits assumed): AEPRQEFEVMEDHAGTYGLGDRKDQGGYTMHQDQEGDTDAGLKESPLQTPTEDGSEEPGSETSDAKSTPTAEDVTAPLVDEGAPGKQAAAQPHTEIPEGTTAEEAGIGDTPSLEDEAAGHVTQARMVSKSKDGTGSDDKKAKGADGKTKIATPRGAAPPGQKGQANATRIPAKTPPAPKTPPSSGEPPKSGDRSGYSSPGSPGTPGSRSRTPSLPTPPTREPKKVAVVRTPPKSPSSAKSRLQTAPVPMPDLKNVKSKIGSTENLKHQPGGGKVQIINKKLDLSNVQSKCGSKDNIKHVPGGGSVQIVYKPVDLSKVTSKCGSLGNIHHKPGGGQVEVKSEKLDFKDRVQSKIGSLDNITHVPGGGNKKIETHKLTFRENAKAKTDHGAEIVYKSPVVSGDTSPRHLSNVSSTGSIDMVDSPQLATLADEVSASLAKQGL
test details: SPR, captured IgG, Tau monomer analyte, 1:1 model; fit-quality column: -

binder: hu37D3-H9.v30.9 (antibody, V domains shown) VH: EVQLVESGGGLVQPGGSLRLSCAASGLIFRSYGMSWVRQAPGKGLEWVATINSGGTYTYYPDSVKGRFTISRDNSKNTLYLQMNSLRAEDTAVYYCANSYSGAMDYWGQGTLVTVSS VL: DDVLTQTPLSLPVTPGQPASISCRSSQSIVHSHGNTYFEWYLQKPGQSPQLLIYKVSNRFSGVPDRFSGSGSGTDFTLKISRVEAEDVGVYYCFQGSLVPWTFGQGTKVEIK
Kd (nM): 36.4
//
binder: hu37D3-H9.v31.1 (antibody, V domains shown) VH: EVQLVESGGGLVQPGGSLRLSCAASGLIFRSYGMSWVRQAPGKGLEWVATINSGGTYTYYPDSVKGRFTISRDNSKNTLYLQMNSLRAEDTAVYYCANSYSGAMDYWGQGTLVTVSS VL: DDVLTQTPLSLPVTPGQPASISCRSSQSIVHSNAGTYFEWYLQKPGQSPQLLIYKVSNRFSGVPDRFSGSGSGTDFTLKISRVEAEDVGVYYCFQGSLVPWTFGQGTKVEIK
Kd (nM): 41.2
